B1: NP_015628.1 (parent)
chain: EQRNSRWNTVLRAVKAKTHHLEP

# Variants of: B1
# EXPERIMENT_DESCRIPTION: protein stability index of a GFP-peptide fusion (GPS, HEK-293T) (PSI 1-6); higher = more stable;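 note: lentivirally expressed fusion library, cells FACS-sorted into six equal-sized GFP/DsRed ratio bins, PSI computed from sequencing read fractions per bin weighted by bin number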
# SETTINGS: c terminus: native
MEASURED_QUANTITY: protein stability index
Format: numeric value only, no unit, no commentary.

Data point: A13N ; protein stability index = 3.06

Data point: R12H ; protein stability index = 2.98

Data point: E1W ; protein stability index = 2.94

Data point: N4S ; protein stability index = 3.05

Data point: R6L ; protein stability index = 2.97

Data point: E22G ; protein stability index = 3.09

Data point: N4M ; protein stability index = 2.94

Data point: L21M ; protein stability index = 3.01

Data point: T9L ; protein stability index = 2.91

Data point: T9C ; protein stability index = 3

Data point: R3V ; protein stability index = 2.99

Data point: S5E ; protein stability index = 2.91

Data point: T9M ; protein stability index = 3.04

Data point: E1H ; protein stability index = 2.91

Data point: E1M ; protein stability index = 2.95

Data point: R6C ; protein stability index = 2.45

Data point: N8H ; protein stability index = 2.64

Data point: P23A ; protein stability index = 4.32

Data point: S5C ; protein stability index = 2.46

Data point: W7K ; protein stability index = 5.46

Data point: R3T ; protein stability index = 2.9

Data point: A16V ; protein stability index = 2.95

Data point: E1K ; protein stability index = 2.12
